biological target: UniProt:P07308; experiment: SCD assay in rat liver microsomes ([3H]stearoyl CoA desaturation, adapted from Talamo and Bloch); conditions: rat liver microsomes 0.2 mg/ml assay final, 30 min preincubation, 45 min reaction, room temperature
Sequence (P07308 whole entry): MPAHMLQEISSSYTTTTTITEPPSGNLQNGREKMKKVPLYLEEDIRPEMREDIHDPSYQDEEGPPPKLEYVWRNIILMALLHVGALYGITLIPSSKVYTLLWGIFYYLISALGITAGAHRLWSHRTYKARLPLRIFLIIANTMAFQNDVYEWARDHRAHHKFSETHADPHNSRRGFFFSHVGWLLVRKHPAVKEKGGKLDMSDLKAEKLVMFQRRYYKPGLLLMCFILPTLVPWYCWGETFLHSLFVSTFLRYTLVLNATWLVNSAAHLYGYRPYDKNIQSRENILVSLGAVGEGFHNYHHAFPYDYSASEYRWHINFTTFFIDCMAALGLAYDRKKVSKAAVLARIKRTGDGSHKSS
Answer each item with its documented pIC50.
pIC50 (log units): -log10 of the concentration in mol/L.

// query Give the measured pIC50 of CC(=O)NCCn1c(=O)cnc2cnc(NCc3cccc(Cl)c3)nc21 .
// result 5.00

// query Give the measured pIC50 of CCCC(=O)NCCn1c(=O)c(-c2ccc(OC)cc2)nc2cnc(NCc3ccc(Cl)c(Cl)c3)nc21 .
// result 4.74

// query Give the measured pIC50 of CC(=O)NCCn1c(=O)c(-c2cccs2)nc2cnc(NCc3ccc(Cl)c(Cl)c3)nc21 .
// result 5.70

// query Give the measured pIC50 of CC(=O)NCCn1c(=O)c(-c2ncccn2)nc2cnc(NCc3ccc(Cl)c(Cl)c3)nc21 .
// result 5.36

// query Give the measured pIC50 of COc1ccc(-c2nc3cnc(NCc4ccc(F)c(F)c4)nc3n(CCNC(C)=O)c2=O)cc1 .
// result 4.89

// query Give the measured pIC50 of COc1ccc(-c2nc3cnc(NCc4ccc(Cl)c(Cl)c4)nc3n(CCNC=O)c2=O)cc1 .
// result 6.59

// query Give the measured pIC50 of COc1ccc(-c2nc3cnc(NCc4ccc(Cl)c(Cl)c4)nc3n(CCNC(C)=O)c2=O)cc1F .
// result 5.66

// query Give the measured pIC50 of COc1ccc(-c2nc3cnc(NCc4ccc(Cl)c(Cl)c4)nc3n(CCNC(=N)N)c2=O)cc1 .
// result 4.96

// query Give the measured pIC50 of CC(=O)NCCn1c(=O)c(-c2cccnc2)nc2cnc(NCc3ccccc3)nc21 .
// result 5.59

// query Give the measured pIC50 of CCC(=O)NCCn1c(=O)c(-c2ccc(OC)cc2)nc2cnc(NCc3ccc(Cl)c(Cl)c3)nc21 .
// result 5.55

// query Give the measured pIC50 of COc1ccc(-c2nc3cnc(NCc4ccc(Cl)c(Cl)c4)nc3n(CCNC(=O)c3cccc(C)c3)c2=O)cc1 .
// result 5.49

// query Give the measured pIC50 of O=C(NCCn1c(=O)c(-c2cccnc2)nc2cnc(NCc3ccc(Cl)c(Cl)c3)nc21)c1ccc(F)cc1 .
// result 5.93

// query Give the measured pIC50 of COc1ccc(-c2nc3cnc(NCc4ccc(Cl)c(Cl)c4)nc3n(CCNC(=O)c3ccco3)c2=O)cc1 .
// result 5.65

// query Give the measured pIC50 of CC(=O)NCCn1c(=O)c(-c2ccc(Cl)cc2)nc2cnc(NCc3ccc(F)cc3)nc21 .
// result 5.74

// query Give the measured pIC50 of COc1ccc(-c2nc3cnc(NCc4ccc(Cl)c(Cl)c4)nc3n(CCNC(=O)c3ccc(F)cc3)c2=O)cc1 .
// result 6.37

// query Give the measured pIC50 of CC(=O)NCCn1c(=O)c(-c2cccnc2)nc2cnc(NCc3cccc(Cl)c3)nc21 .
// result 5.04

The origin of these recorded values is patent US7662819B2.
